Taken from patent US20230265151A1.

Target: T1, human GIP receptor (human, UniProt P48546 22-466)
T1 sequence (looked up): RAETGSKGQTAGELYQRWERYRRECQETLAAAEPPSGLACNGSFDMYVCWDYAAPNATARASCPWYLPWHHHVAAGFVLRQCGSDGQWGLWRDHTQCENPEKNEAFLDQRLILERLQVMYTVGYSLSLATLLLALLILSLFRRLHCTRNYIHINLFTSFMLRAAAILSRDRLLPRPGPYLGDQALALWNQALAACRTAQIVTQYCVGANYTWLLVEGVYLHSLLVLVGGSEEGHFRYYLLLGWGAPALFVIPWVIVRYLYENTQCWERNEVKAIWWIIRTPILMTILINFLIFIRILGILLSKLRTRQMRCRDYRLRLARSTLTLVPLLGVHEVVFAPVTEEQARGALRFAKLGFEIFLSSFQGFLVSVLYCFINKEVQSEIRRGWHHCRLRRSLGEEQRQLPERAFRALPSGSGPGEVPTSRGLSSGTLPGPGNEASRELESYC
Assay: cell-based or functional assay
*1 amine or outer side, *2 acyl side, *3 side chain or, on linkers, in order; H or OH if unused. Where no end group is shown, it is not given here. Side-chain parts run from the residue outwards. [ ]: non-standard residue; d: D form. The star is where a group is joined. Decanoyl(10-(4-HOOC-PhO)) = O=C(O)c1ccc(OCCCCCCCCCC(=O)*)cc1; αMePhe(2-F) = C[C@](N)(Cc1ccccc1F)C(=O)O; γGlu = O=C(O)[C@H](CCC(=O)[*:2])N[*:1]; αMeY = C[C@](N)(Cc1ccc(O)cc1)C(=O)O; αMeL = CC(C)C[C@](C)(N)C(=O)O; Orn = NCCC[C@H](N)C(=O)O; AEEA = NCCOCCOCC(=O)O; Aib = CC(C)(N)C(=O)O
Lab note: compare cAMP EC50 (1.0% HSA) with 0.5 nM, writing Y if less and N if equal or more.

Solved entries:
binder	cat
Y[Aib]EGT[αMePhe(2-F)]TSDV[Aib]I[αMeL]LD[Orn]IAQ[Aib]K([AEEA-γGlu-Decanoyl(10-(4-HOOC-PhO))])FI[dE][αMeY]LIK([AEEA-γGlu-Decanoyl(10-(4-HOOC-PhO))])GGPSSGAPPPS-NH2 [Example 382]	N
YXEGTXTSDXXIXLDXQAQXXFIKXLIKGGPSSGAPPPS (Y-Aib-EGT-αMeF(2F)-TSD-4Pal-Aib-I-αMeL-LD-Orn-QAQ-Aib-Orn-FIK((2-[2-(2-Amino-ethoxy)-ethoxy]-acetyl)3-(γ-Glu)-CO-(CH2)12-CO2H)-αMeY-LIK((2-[2-(2-Amino-ethoxy)-ethoxy]-acetyl)3-(γ-Glu)-CO-(CH2)12-CO2H)GGPSSGAPPPS-NH2) [Example 476]	Y
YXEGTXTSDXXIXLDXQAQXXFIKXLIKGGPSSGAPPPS (Y-Aib-EGT-αMeF(2F)-TSD-4Pal-Aib-I-αMeL-LD-Orn-QAQ-Aib-Orn-FIK(PEG4-(γ-Glu)-CO-(CH2)12-CO2H)-αMeY-LIK(PEG4-(γ-Glu)-CO-(CH2)12-CO2H)GGPSSGAPPPS-NH2) [Example 457]	Y
YXEGTXTSDYXIXLDXIAQXXFIKXLIKGGPSSGAPPPS (Y-Aib-EGT-αMeF(2F)-TSDY-Aib-I-αMeL-LD-Orn-IAQ-Aib-Orn-FIK((2-[2-(2-Amino-ethoxy)-ethoxy]-acetyl)3-(γ-Glu)-CO-(CH2)12-CO2H)-αMeY-LIK((2-[2-(2-Amino-ethoxy)-ethoxy]-acetyl)3-(γ-Glu)-CO-(CH2)12-CO2H)GGPSSGAPPPS-NH2) [Example 478]	N
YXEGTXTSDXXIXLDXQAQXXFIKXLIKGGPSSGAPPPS (Y-Aib-EGT-αMeF(2F)-TSD-4Pal-Aib-I-αMeL-LD-Orn-QAQ-Aib-Orn-FIK((2-[2-(2-Amino-ethoxy)-ethoxy]-acetyl)-(γ-Glu)-(2-[2-(2-Amino-ethoxy)-ethoxy]-acetyl)-(γ-Glu)-CO-(CH2)12-CO2H)-αMeY-LIK((2-[2-(2-Amino-ethoxy)-ethoxy]-acetyl)-(γ-Glu)-(2-[2-(2-Amino-ethoxy)-ethoxy]-acetyl)-(γ-Glu)-CO-(CH2)12-CO2H)GGPSSGAPPPS-NH2) [Example 484]	Y
YXEGTXTSDKXIXLDXKAQXXFIXXLIEGGPSSGAPPPS (Y-Aib-EGT-αMeF(2F)-TSDK((2-[2-(2-Amino-ethoxy)-ethoxy]-acetyl)2-(γ-Glu)-CO-(CH2)10-CH3)-Aib-I-αMeL-LD-Orn-K((2-[2-(2-Amino-ethoxy)-ethoxy]-acetyl)2-(γ-Glu)-CO-(CH2)10-CH3)AQ-Aib-Orn-FI-(D-Glu)-αMeY-LIEGGPSSGAPPPS-NH2) [Example 417]	Y
YXEGTXTSDVXIXLDXKAQXKFIXXLIEGGPSSGAPPPS (Y-Aib-EGT-αMeF(2F)-TSDV-Aib-I-αMeL-LD-Orn-K((2-[2-(2-Amino-ethoxy)-ethoxy]-acetyl)-(γ-Glu)-CO-(CH2)12-CO2H)AQ-Aib-K((2-[2-(2-Amino-ethoxy)-ethoxy]-acetyl)-(γ-Glu)-CO-(CH2)12-CO2H)FI-(D-Glu)-αMeY-LIEGGPSSGAPPPS-NH2) [Example 398]	N
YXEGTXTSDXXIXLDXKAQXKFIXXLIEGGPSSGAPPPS (Y-Aib-EGT-αMeF(2F)-TSD-4Pal-Aib-I-αMeL-LD-Orn-K((2-[2-(2-Amino-ethoxy)-ethoxy]-acetyl)2-(γ-Glu)-CO-(CH2)12-CO2H)AQ-Aib-K((2-[2-(2-Amino-ethoxy)-ethoxy]-acetyl)2-(γ-Glu)-CO-(CH2)12-CO2H)FI-(D-Glu)-αMeY-LIEGGPSSGAPPPS-NH2) [Example 357]	N

For Y[Aib]EGT[αMePhe(2-F)]TSDV[Aib]I[αMeL]LD[Orn]QAQ[Aib][Orn]FIK([AEEA-AEEA-γGlu-Decanoyl(10-(4-HOOC-PhO))])[αMeY]LIK([AEEA-AEEA-γGlu-Decanoyl(10-(4-HOOC-PhO))])GGPSSGAPPPS-NH2 [Example 447] , is the recorded cAMP EC50 (1.0% HSA) below the cut-off of 0.5 nM?
N

Likewise for YXEGTXTSDYXIXLDXKAQXKFIXXLIXGGPSSGAPPPS (Y-Aib-EGT-αMeF(2F)-TSDY-Aib-I-αMeL-LD-Orn-K((2-[2-(2-Amino-ethoxy)-ethoxy]-acetyl)2-(γ-Glu)-(10-(4-carboxyphenoxy)decanoyl))AQ-Aib-K((2-[2-(2-Amino-ethoxy)-ethoxy]-acetyl)2-(γ-Glu)-(10-(4-carboxyphenoxy)decanoyl))FI-(D-Glu)-αMeY-LI-Orn-GGPSSGAPPPS-NH2) [Example 409] ?
N

Likewise for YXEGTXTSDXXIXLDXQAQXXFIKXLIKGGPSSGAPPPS (not fully specified; Y-Aib-EGT-αMeF(2F)-TSD-4Pal-Aib-I-αMeL-LD-Orn-QAQ-Aib-Orn-FIK((2-[2-(2-Amino-ethoxy)-ethoxy]-acetyl)-Aoc-(γ-Glu)-CO-(CH2)12-CO2)-αMeY-LIK((2-[2-(2-Amino-ethoxy)-ethoxy]-acetyl)-Aoc-(γ-Glu)-CO-(CH2)12-CO2)GGPSSGAPPPS-NH2) [Example 450] ?
N
